Cited source: PubChem BioAssay (NCI)

system: NCI-H522 lung; test: NCI-60 one-dose screen, 48 h (100 = growth as untreated, 0 = no growth, -100 = all killed); conditions: 10 µM
About 83,000 compounds went through this panel and 20% of them were active in at least one assay; those are over-represented in the sample as a whole. The source made the active and inactive calls. Rule for the calls: active = growth percent below 10; inactive = the rest.
Would you mind telling me the reported growth of each entry?

Below, each entry is followed by its recorded growth result.
1) COc1ccc(CNC(=O)c2c(C)n([O-])c3cc(F)c(F)cc3[n+]2=O)cc1 :: 77.9% (inactive)
2) O=[N+]([O-])c1cc([N+](=O)[O-])c(N2CCCC2)cc1NN=C(c1ccc(O)cc1)c1ccc(O)cc1 :: -42% (active)
3) C[C@H]1c2cccc(O)c2C(O)=C2C(=O)[C@]3(O)C(O)=C(C(N)=O)C(=O)[C@@H](N(C)C)[C@@H]3[C@@H](O)[C@@H]21 :: 45.4% (inactive)
4) O=c1ncc(-c2ccc(C(F)(F)F)cc2)c(NC2CCCCCC2)[nH]1 :: 29% (inactive)

For NCI-H522 lung, give growth of the listed molecule: COc1cc(/C=C2\SC(N3CCCCC3)=NC2=O)ccc1OCCCCCCOc1ccc(/C=C2\SC(N3CCCCC3)=NC2=O)cc1OC
-11.5% (active)
